Measured Max (maximum inhibition observed at concentrations tested) values are reported for all entries that follow.
tested on: affinity purified β2GPI-dependent antiphospholipid antibody; assay: Competitive inhibition ELISA: recombinant β2GPI proteins compete for antibody binding to coated full length recombinant β2GPI; set-up: species or system human; settings: Ab 6701
API: value field is a number in %; no unit string.

Worked examples, 2 molecules total:
{"columns": ["MOLECULE", "NUMERIC_RESULT"],
 "data": [
  ["recombinant β2GPI domain 5 with GlyHis6 (----5) (protein) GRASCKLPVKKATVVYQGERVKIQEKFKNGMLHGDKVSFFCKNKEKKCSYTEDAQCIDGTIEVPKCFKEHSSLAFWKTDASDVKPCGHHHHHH", 10],
  ["123--: recombinant β2GPI deletion mutant with domains 1, 2, 3 (protein) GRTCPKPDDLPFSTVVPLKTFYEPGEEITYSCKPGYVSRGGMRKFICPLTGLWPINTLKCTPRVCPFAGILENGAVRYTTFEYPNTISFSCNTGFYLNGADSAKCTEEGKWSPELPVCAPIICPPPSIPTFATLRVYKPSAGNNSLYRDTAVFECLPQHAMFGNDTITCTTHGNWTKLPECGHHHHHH", 95]
]}

Turning to the following molecule.
Inquiry: Param item = ---45: recombinant β2GPI deletion mutant with domains 4, 5 (protein) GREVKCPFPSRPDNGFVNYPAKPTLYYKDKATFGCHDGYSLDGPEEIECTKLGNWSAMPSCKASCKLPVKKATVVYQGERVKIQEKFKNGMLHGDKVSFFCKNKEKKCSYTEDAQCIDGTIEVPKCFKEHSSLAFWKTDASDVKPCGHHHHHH ; retrieve measured Max (maximum inhibition observed at concentrations tested).
Reply text: 15
